Let's look at some compounds and their measured AC50.
- ASSAY_INFO: Luminescence Cell-Based Dose Retest to Confirm Inhibitors of Cancer Stem Cells. [Related pubchem assays (depositor defined):AID2717, AID2721];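 further: cells exposed to compound for roughly 70 hours or longer before luminescence read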
- Format: functional
- EXPERIMENTAL_PARAMETERS: Homo sapiens
Activity calls are given as the source filed them. No stated cut-off is given here; in the data, actives have a measured AC50 and inactives only a lower limit.

[
  {
    "COMPOUND": "CC(NCc1ccc(OCc2ccc(Cl)cc2)cc1)C(O)c1ccccc1 (stereo not given)",
    "AC50": "3.57 µM (active)"
  },
  {
    "COMPOUND": "CCC(C)Sc1ccc(-c2nc3cnccn3c2NC2CCCCC2)cc1 (stereo not given)",
    "AC50": "3.63 µM (active)"
  },
  {
    "COMPOUND": "O=[N+]([O-])/C=C/c1cn(Cc2ccc(F)cc2)c2ccccc12",
    "AC50": "3.2 µM (active)"
  }
]

[ask] Look up AC50: Fc1ccc(CSc2nc3ccccc3[nH]2)c2ccccc12
[reply] 5.37 µM (active)

[ask] Look up AC50: CCN1CCN(c2ccc(NC(=O)CCc3c(C)nc4c(-c5ccc(F)cc5)c(C)nn4c3C)cc2)CC1
[reply] 2.15 µM (active)
